- experimentDescription: Therapeutic index (NOAEL/NOEL): paleness, lethargy, ataxia observation in Sprague-Dawley rats (Example 7)
- Type: in vivo
- measurementParameters: S.C.; rat
Where a SMILES comes first, the peptide text is derived from it. Bridges are numbered along the chain shown (N, C = ends). [ ]: non-standard residue; d: D form. Aad = N[C@@H](CCCC(=O)O)C(=O)O; Dap = NC[C@H](N)C(=O)O; Mpa = O=C(O)CCS
reportedEndpoint: NOAEL/NOEL (therapeutic index)
Numbers only.

molecule: NC[C@H](NC(=O)[C@@H]1CCCN1C(=O)[C@@H]1CSSCCC(=O)N[C@@H](Cc2ccc(O)cc2)C(=O)N[C@@H](Cc2ccccc2)C(=O)N[C@@H](CCCC(N)=O)C(=O)N[C@@H](CC(N)=O)C(=O)N1)C(=O)NCC(N)=O [SEQ ID NO. 17, Mpa-Tyr-Phe-Hgn-Asn-Cys-Pro-Dap-Gly-NH2] ([Mpa]YF[Aad](NH2)NCP[Dap]G-NH2; disulfide 1-6)
testResult: 34

Could you now look at the following molecule, please?
Ask | Look up NOAEL/NOEL (therapeutic index) for this molecule: CC(=O)NCCCC[C@H](NC(=O)[C@@H]1CCCN1C(=O)[C@@H]1CSSCCC(=O)N[C@@H](Cc2ccc(O)cc2)C(=O)N[C@@H](Cc2ccccc2)C(=O)N[C@@H](CCCC(N)=O)C(=O)N[C@@H](CC(N)=O)C(=O)N1)C(=O)NCC(N)=O [SEQ ID NO. 28]
Reply | 3

###

- experimentDescription: Therapeutic index (NOAEL/NOEL): paleness, lethargy, ataxia observation in Sprague-Dawley rats (Example 7)
- Type: in vivo
- measurementParameters: rat, in vivo, sc
Where a SMILES comes first, the peptide text is derived from it. Bridges are numbered along the chain shown (N, C = ends). [ ]: non-standard residue; d: D form. Aad = N[C@@H](CCCC(=O)O)C(=O)O; Dap = NC[C@H](N)C(=O)O; Mpa = O=C(O)CCS
reportedEndpoint: Mild adverse effect (Lowest dose first showed Lethargy) (mg/kg)
One number for each entry, in mg/kg.

Some compounds with known Mild adverse effect (Lowest dose first showed Lethargy) results, for comparison:
compound: NCC(=O)NCC(=O)NCC(=O)NCC(=O)NCC(=O)NCC(=O)NCCCC[C@H](NC(=O)[C@@H]1CCCN1C(=O)[C@@H]1CSSCCC(=O)N[C@@H](Cc2ccc(O)cc2)C(=O)N[C@@H](Cc2ccccc2)C(=O)N[C@@H](CCCC(N)=O)C(=O)N[C@@H](CC(N)=O)C(=O)N1)C(=O)NCC(N)=O
testResult: 0.5
//
compound: NCC(=O)NCC(=O)NCC(=O)NCC(=O)NCC(=O)NCC(=O)NCC(=O)NCC(=O)NCC(=O)NCCCC[C@H](NC(=O)[C@@H]1CCCN1C(=O)[C@@H]1CSSCCC(=O)N[C@@H](Cc2ccc(O)cc2)C(=O)N[C@@H](Cc2ccccc2)C(=O)N[C@@H](CCCC(N)=O)C(=O)N[C@@H](CC(N)=O)C(=O)N1)C(=O)NCC(N)=O
testResult: 1.5
//
compound: NCC(=O)NCC(=O)NCC(=O)NCC(=O)NCCCC[C@H](NC(=O)[C@@H]1CCCN1C(=O)[C@@H]1CSSCCC(=O)N[C@@H](Cc2ccc(O)cc2)C(=O)N[C@@H](Cc2ccccc2)C(=O)N[C@@H](CCCC(N)=O)C(=O)N[C@@H](CC(N)=O)C(=O)N1)C(=O)NCC(N)=O
testResult: 0.5

Dear colleague, could you send me Mild adverse effect (Lowest dose first showed Lethargy) for each of the items below? Thanks.
1. NCC(=O)NCC(=O)NCC(=O)NCC(=O)NCC(=O)NCCCC[C@H](NC(=O)[C@@H]1CCCN1C(=O)[C@@H]1CSSCCC(=O)N[C@@H](Cc2ccc(O)cc2)C(=O)N[C@@H](Cc2ccccc2)C(=O)N[C@@H](CCCC(N)=O)C(=O)N[C@@H](CC(N)=O)C(=O)N1)C(=O)NCC(N)=O
2. NCCCC[C@@H](NC(=O)[C@@H]1CCCN1C(=O)[C@@H]1CSSCCC(=O)N[C@@H](Cc2ccc(O)cc2)C(=O)N[C@@H](Cc2ccccc2)C(=O)N[C@@H](CCCC(N)=O)C(=O)N[C@@H](CC(N)=O)C(=O)N1)C(=O)NCC(N)=O
3. NC[C@H](NC(=O)[C@@H]1CCCN1C(=O)[C@@H]1CSSCCC(=O)N[C@@H](Cc2ccc(O)cc2)C(=O)N[C@@H](Cc2ccccc2)C(=O)N[C@@H](CCCC(N)=O)C(=O)N[C@@H](CC(N)=O)C(=O)N1)C(=O)NCC(N)=O [SEQ ID NO. 17, Mpa-Tyr-Phe-Hgn-Asn-Cys-Pro-Dap-Gly-NH2] ([Mpa]YF[Aad](NH2)NCP[Dap]G-NH2; disulfide 1-6)
4. NCC(=O)NCC(=O)NCCCC[C@H](NC(=O)[C@@H]1CCCN1C(=O)[C@@H]1CSSCCC(=O)N[C@@H](Cc2ccc(O)cc2)C(=O)N[C@@H](Cc2ccccc2)C(=O)N[C@@H](CCCC(N)=O)C(=O)N[C@@H](CC(N)=O)C(=O)N1)C(=O)NCC(N)=O
5. NCC(=O)NCC(=O)NCC(=O)NCCCC[C@H](NC(=O)[C@@H]1CCCN1C(=O)[C@@H]1CSSCCC(=O)N[C@@H](Cc2ccc(O)cc2)C(=O)N[C@@H](Cc2ccccc2)C(=O)N[C@@H](CCCC(N)=O)C(=O)N[C@@H](CC(N)=O)C(=O)N1)C(=O)NCC(N)=O

Reply |
1: 0.5; 2: 0.5; 3: 4.78; 4: 0.5; 5: 0.5

Ask | For NCCC[C@H](NC(=O)[C@@H]1CCCN1C(=O)[C@@H]1CSSCCC(=O)N[C@@H](Cc2ccc(O)cc2)C(=O)N[C@@H](Cc2ccccc2)C(=O)N[C@@H](CCCC(N)=O)C(=O)N[C@@H](CC(N)=O)C(=O)N1)C(=O)NCC(N)=O , what is its reported Mild adverse effect (Lowest dose first showed Lethargy)?
Reply | 0.015
